The measured values listed here are drawn from ChEMBL document CHEMBL4808177.

Assay: Modulation of SMN2 splicing in myoblast cell line derived from the SMNdelta7 mouse model assessed as increase in SMN level measured as fold activation treated for 24 hrs by ELISA
Format: functional, Primary myoblast
pEC50: −log10 of the molar value.
Classification field: enter MET for pEC50 values not below 7, NOT MET for values below it.

>>> assigned_class("CN(c1nnc(-c2ccc(-c3cn[nH]c3)c(F)c2F)s1)C1CC(C)(C)NC(C)(C)C1")
"MET"
>>> assigned_class("CN(c1nnc(-c2ccc(-n3cccn3)cc2)s1)C1CC(C)(C)NC(C)(C)C1")
"NOT MET"
>>> assigned_class("CN(c1nnc(-c2c(O)cc(-c3cn[nH]c3)c(F)c2F)s1)C1CC(C)(C)NC(C)(C)C1")
"MET"
>>> assigned_class("CN(c1nnc(-c2ccc(-c3cn[nH]c3)cc2Cl)s1)C1CC(C)(C)NC(C)(C)C1")
"MET"
>>> assigned_class("CN(c1nnc(-c2cc(F)c(-c3cn[nH]c3)cc2F)s1)C1CC(C)(C)NC(C)(C)C1")
"MET"
>>> assigned_class("CN(c1nnc(-c2ccc(C#N)cc2O)s1)C1CC(C)(C)NC(C)(C)C1")
"NOT MET"
>>> assigned_class("CN(c1nnc(-c2ccc(-c3cn[nH]c3)cc2F)s1)C1CC(C)(C)NC(C)(C)C1")
"MET"
>>> assigned_class("CN(c1nnc(-c2cc(F)c(-c3cn[nH]c3)cc2Cl)s1)C1CC(C)(C)NC(C)(C)C1")
"MET"
>>> assigned_class("COc1cc(-c2cnn(C)c2)ccc1-c1nnc(N(C)C2CC(C)(C)NC(C)(C)C2)s1")
"MET"
>>> assigned_class("CN(c1nnc(-c2c(O)cc(-c3cn[nH]c3)cc2Cl)s1)C1CC(C)(C)NC(C)(C)C1")
"MET"
>>> assigned_class("CN(c1nnc(-c2sc3ccccc3c2Cl)s1)C1CC(C)(C)NC(C)(C)C1")
"NOT MET"
>>> assigned_class("COc1cc(C#N)ccc1-c1nnc(N(C)C2CC(C)(C)NC(C)(C)C2)s1")
"NOT MET"
>>> assigned_class("Cc1cc(-c2ccn(C)c(=O)c2)ccc1-c1nnc(N(C)C2CC(C)(C)NC(C)(C)C2)s1")
"NOT MET"
>>> assigned_class("COc1cc(-c2cn[nH]c2)ccc1-c1nnc(N(C)C2CC(C)(C)NC(C)(C)C2)s1")
"MET"
>>> assigned_class("CN(c1nnc(-c2ccc(-n3cccn3)cc2O)s1)C1CC(C)(C)NC(C)(C)C1")
"NOT MET"
>>> assigned_class("CN(c1nnc(-c2cc3ccccc3s2)s1)C1CC(C)(C)NC(C)(C)C1")
"NOT MET"
